Experiment: OD615 S. cerevisiae growth inhibition, permissive medium, pilot counter-assay, permissive growth control for S. cerevisiae lifespan shortening project (AID 705)
Details: OD615, 24 h, at 10 µM, stronger effect = higher value
parameterMeasured: growth inhibition (%)

| compound | resultNumber |
| --- | --- |
| CN1CCN(c2ccccc2NC(=O)C(Cc2ccccc2)n2cccc2)CC1 (stereo not drawn) | -7.49 |
| CC(=O)c1cccc(NC(=O)CN(c2ccc(F)cc2)S(C)(=O)=O)c1 | -13 |
| COc1ccc(S(=O)(=O)N2CCN(c3ccc4nnc(-c5ccc(F)cc5)n4n3)CC2)cc1 | 16.1 |

---

Assay: growth suppression of PTEN-deleted HCT116, pilot screen, cell-based, HCT116 clonal line, CellTiter-Glo (AID 824);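 further: 0% = 20 µM Hyamine control and 100% = vehicle cell control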
Details: 60 h, at 10 µM, stronger effect = lower value
Records with an inconclusive call do not appear. Calls of active or inactive are those of the source.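 How the source made its calls: active means viability at or below 27.92% in each of two runs, the all-compound median minus 4 SD; inconclusive means no clear call, values can overlap the other calls; inactive means the rest.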

| compound | viability |
| --- | --- |
| O=C(Cn1cnc2c(nnn2-c2ccccc2)c1=O)NCCc1ccccc1 | 100% (inactive) |
| CCc1ccc(C2N(c3ccc(OC)cc3)C(=O)C3CCCN32)cc1 (stereo unspecified) | 101% (inactive) |
| CCOC(=O)N1CCC(NC(=O)c2cc3c(C)nc4ccccc4c3o2)CC1 | 91.5% (inactive) |
| CCOC(=O)N1CCN(C(=O)c2cc3cc(Br)ccc3oc2=O)CC1 | 89.7% (inactive) |
| O=C(NCCCN1CCN(c2ccccc2F)CC1)C1CCCN(S(=O)(=O)c2cnc[nH]2)C1 (stereo unspecified) | 102% (inactive) |
| C=CCn1c(C)cc(C(=O)COc2nncc3ccccc23)c1C | 74.2% (inactive) |
